Reported values of Kd for individual entries
B1: scFv; the commonest letter at each place (parent)
chain 1: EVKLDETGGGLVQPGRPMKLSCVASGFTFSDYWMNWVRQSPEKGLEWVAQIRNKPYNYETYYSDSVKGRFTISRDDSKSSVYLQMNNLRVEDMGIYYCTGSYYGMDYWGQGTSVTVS
chain 2: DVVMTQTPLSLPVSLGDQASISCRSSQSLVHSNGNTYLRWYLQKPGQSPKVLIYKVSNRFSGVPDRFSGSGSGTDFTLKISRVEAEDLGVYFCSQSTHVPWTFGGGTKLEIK

Variants of: B1
protocol notes: Kd (Tite-Seq)
test conditions: with fluorescein; format: scFv 4-4-20, heavy + light

These solved cases illustrate the format of a correct answer.
mutant name	property measured	measured result
chain 1 S101A	Kd	0.000724 µM
chain 1 M105Q	Kd	0.0423 µM
chain 1 W33C W36G	Kd	≥ 10 µM
chain 1 Y107F	Kd	0.0017 µM

Now for a further variant.
## Input Please give the measured Kd for this variant: chain 1 Y107R
## Output 0.102 µM
